Recorded measurements of Kb, one per entry
biological target: gpH1R (Cavia porcellus); construct: from tissue; host or cells: isolated distal ileum of male guinea pigs; test: Ex vivo assay for histamine H1R antagonists on guinea pig ileum stimulated by histamine (+atropine); details: gpH1R +Atropine pA2 ± sem, isolated guinea pig ileum, vs histamine, 0.05 µM atropine
Sequence (P31389 whole entry): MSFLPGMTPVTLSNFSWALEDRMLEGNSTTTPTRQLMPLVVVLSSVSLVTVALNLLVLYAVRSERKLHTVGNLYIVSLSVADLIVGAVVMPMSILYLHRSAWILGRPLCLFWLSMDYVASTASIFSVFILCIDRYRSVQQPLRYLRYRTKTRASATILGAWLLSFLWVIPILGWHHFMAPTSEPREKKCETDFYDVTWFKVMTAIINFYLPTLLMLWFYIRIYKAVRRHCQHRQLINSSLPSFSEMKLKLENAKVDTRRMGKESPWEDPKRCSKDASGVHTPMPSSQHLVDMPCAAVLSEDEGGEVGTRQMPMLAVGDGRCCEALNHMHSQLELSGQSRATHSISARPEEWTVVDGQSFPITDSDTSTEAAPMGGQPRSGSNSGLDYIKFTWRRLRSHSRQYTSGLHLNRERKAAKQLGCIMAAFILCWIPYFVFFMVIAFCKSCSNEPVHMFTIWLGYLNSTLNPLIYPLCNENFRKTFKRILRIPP
API: value field is a number in nM; no unit string.

Example entries and their recorded answers appear below.
Query :: Supply Kb value. Item: N=C(N)N(CCCCN1CCN(CCCCCCCOc2ccccc2)CC1)Cc1ccc(C(F)(F)F)cc1 [ADS1020]
Result :: 871

Query :: Supply Kb value. Item: N=C(N)N(CCCCN1CCN(CCCOCCCc2ccc(Cl)cc2)CC1)Cc1ccccc1 [ADS10278]
Result :: 117

Query :: Supply Kb value. Item: N=C(NCCCCN1CCCCC1)NCCCc1ccc(Cl)cc1 [ADS10301]
Result :: 347

Query :: Supply Kb value. Item: N=C(N)N(CCCc1ccc(Cl)cc1)CCCN1CCCCC1 [ADS10292]
Result :: 1200

We now examine a further molecule.
Query :: Supply Kb value. Item: N=C(NCCCc1ccc(Cl)cc1)NCCCN1CCCCC1 [ADS10298]
Result :: 132

* * *

molecular target: eeAChE (Electrophorus electricus); construct: purchased Sigma–Aldrich (Steinheim, Germany); test: biochemical; set-up: species or system electric eel; settings: 10 µM; read-out: eeAChE % inh. (10 µM) ± SD
Sequence (O42275 24-633): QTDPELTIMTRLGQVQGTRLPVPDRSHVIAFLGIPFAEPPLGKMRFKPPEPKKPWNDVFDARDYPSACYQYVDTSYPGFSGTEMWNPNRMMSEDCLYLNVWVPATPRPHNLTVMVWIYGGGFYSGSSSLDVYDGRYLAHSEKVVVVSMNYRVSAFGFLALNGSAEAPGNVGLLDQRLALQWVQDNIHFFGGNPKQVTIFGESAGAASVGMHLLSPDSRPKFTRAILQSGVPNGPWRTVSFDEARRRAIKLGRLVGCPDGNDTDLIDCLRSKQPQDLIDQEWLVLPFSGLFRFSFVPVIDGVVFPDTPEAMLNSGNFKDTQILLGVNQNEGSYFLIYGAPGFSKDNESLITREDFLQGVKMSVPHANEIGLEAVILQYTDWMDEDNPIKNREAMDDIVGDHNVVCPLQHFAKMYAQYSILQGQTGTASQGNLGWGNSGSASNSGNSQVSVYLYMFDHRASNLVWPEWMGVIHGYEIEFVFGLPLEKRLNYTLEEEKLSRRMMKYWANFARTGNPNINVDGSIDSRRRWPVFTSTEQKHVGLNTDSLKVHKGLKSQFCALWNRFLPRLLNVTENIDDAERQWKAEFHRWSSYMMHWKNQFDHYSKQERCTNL
Tag: TRUE if measured inhibition at 10 µM is not below 40%, FALSE if it is.

Query :: Hello, I need to know if N=C(N)N(CCCCN1CCN(CCCOCCCc2ccc(Cl)cc2)CC1)Cc1ccc(C(F)(F)F)cc1 [ADS10279] has measured inhibition at 10 µM not below 40%. Thanks!
Result :: TRUE

Others:
Query :: Hello, I need to know if N=C(N)N(CCCCN1CCN(CCCCCCCOc2ccc(Cl)cc2)CC1)Cc1ccc(C(F)(F)F)cc1 [ADS10376] has measured inhibition at 10 µM not below 40%. Thanks!
Result :: FALSE

Query :: Hello, I need to know if N=C(N)N(CCCCN1CCN(CCCOCCCc2ccc(Cl)cc2)CC1)Cc1ccccc1 [ADS10278] has measured inhibition at 10 µM not below 40%. Thanks!
Result :: TRUE

Query :: Hello, I need to know if N=C(NCCCCN1CCCCC1)NCCCc1ccc(Cl)cc1 [ADS10301] has measured inhibition at 10 µM not below 40%. Thanks!
Result :: FALSE

Query :: Hello, I need to know if N=C(N)N(CCCc1ccc(Cl)cc1)CCCN1CCCCC1 [ADS10292] has measured inhibition at 10 µM not below 40%. Thanks!
Result :: TRUE

Query :: Hello, I need to know if N=C(N)N(CCCCc1ccc(Cl)cc1)CCCN1CCCCC1 [ADS10312] has measured inhibition at 10 µM not below 40%. Thanks!
Result :: FALSE

Query :: Hello, I need to know if N=C(N)N(CCCCN1CCN(CCCOCCCc2ccccc2)CC1)Cc1ccccc1 [ADS10349] has measured inhibition at 10 µM not below 40%. Thanks!
Result :: FALSE

Query :: Hello, I need to know if N=C(NCCCCc1ccc(Cl)cc1)NCCCN1CCCCC1 [ADS10306] has measured inhibition at 10 µM not below 40%. Thanks!
Result :: FALSE

Query :: Hello, I need to know if N=C(N)N(CCCCN1CCN(CCCCCCCOc2ccc(Cl)cc2)CC1)Cc1ccccc1 [ADS10377] has measured inhibition at 10 µM not below 40%. Thanks!
Result :: FALSE

Query :: Hello, I need to know if Cl.Cl.N=C(NCCCCc1ccc(Cl)cc1)NCCCCN1CCCCC1 [ADS10310] has measured inhibition at 10 µM not below 40%. Thanks!
Result :: FALSE

Query :: Hello, I need to know if N=C(N)N(CCCCN1CCN(CCCOCCCc2ccccc2)CC1)Cc1ccc(C(F)(F)F)cc1 [ADS10350] has measured inhibition at 10 µM not below 40%. Thanks!
Result :: FALSE

Query :: Hello, I need to know if N=C(N)N(CCCCN1CCN(CCCCCCCOc2ccccc2)CC1)Cc1ccccc1 [ADS1017] has measured inhibition at 10 µM not below 40%. Thanks!
Result :: TRUE
